# Tested on: zebrafish WT α1BB-AR (Danio rerio, UniProt Q5U3D9)
# Sequence (Q5U3D9 1-481): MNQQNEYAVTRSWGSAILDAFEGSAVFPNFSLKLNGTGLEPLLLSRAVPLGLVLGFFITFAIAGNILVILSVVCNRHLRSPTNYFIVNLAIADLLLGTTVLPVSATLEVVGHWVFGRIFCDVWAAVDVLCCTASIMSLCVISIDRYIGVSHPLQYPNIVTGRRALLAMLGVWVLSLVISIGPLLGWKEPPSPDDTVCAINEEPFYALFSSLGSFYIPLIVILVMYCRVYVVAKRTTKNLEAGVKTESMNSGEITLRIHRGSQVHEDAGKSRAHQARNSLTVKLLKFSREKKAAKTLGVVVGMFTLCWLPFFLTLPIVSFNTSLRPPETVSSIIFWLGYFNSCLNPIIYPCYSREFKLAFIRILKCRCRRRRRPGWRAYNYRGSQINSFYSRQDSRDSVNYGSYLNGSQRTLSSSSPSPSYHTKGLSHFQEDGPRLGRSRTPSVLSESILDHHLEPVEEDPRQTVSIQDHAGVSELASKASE
# Method description: cell-based
Readout label: pEC50
Lab note — pEC50 values are minus log10 of concentrations in M.

Quick check: pEC50 of NC[C@H](O)c1ccc(O)c(O)c1 [NE, norepinephrine] ? 6.39
